# key: entry, value: Mean absorbance at 405 nm
# TARGET DESC: T1, TSHR260-alkaline phosphatase (TSHR260-AP) (human, UniProt P05187 23-511)
# T1 construct: Fusion of human TSHR amino acids 22-260 (construct codes 1-260, 1-21 being the leader) with secreted alkaline phosphatase, expressed in insect cells; In the ELISA the antibody bridges full length detergent-solubilised TSHR coated on the wells and TSHR260-AP in the liquid phase
# ASSAY SUMMARY: TSHR260-AP bridge ELISA, full length TSHR on wells; 250 µg/mL, diluted in HBD
Lab book: enter the figure in absorbance at 405 nm, no units written.

K1-18 IgG (antibody, V domains shown, Human IgG1 kappa purified from hetero-hybridoma supernatant) VH: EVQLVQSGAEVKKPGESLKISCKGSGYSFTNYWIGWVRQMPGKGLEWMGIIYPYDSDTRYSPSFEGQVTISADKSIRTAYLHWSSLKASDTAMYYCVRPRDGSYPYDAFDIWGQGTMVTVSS VL: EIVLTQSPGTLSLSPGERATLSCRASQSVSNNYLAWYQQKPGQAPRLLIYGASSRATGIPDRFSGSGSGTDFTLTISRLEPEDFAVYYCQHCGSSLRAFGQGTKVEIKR = 0.722
K1-70 Fab (Fab, V domains shown, residue limits as in claims 56 and 57) VH: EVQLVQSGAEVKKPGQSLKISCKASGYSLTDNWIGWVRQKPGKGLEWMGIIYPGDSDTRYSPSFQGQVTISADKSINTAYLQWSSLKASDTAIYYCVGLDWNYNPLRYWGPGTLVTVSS VL: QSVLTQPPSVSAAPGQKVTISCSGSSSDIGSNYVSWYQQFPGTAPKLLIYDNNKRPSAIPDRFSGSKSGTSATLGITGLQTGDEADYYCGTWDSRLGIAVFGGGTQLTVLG = 0.02
K1-18 Fab (Fab, V domains shown, residue limits as in claim 65) VH: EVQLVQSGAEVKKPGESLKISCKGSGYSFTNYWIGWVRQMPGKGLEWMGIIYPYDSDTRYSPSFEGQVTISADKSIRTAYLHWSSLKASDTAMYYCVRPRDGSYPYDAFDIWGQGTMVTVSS VL: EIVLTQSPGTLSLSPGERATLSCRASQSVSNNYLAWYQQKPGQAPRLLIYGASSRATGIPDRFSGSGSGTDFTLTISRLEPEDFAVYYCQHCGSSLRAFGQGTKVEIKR = -0.007

Note: attention shifts to another entry.
**Q:** What value of measured Mean absorbance at 405 nm is listed for K1-70 IgG (antibody, V domains shown, Human IgG1 lambda purified from hetero-hybridoma supernatant) VH: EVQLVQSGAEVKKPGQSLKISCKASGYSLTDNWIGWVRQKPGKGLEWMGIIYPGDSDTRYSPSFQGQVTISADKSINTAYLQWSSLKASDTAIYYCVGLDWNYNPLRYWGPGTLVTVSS VL: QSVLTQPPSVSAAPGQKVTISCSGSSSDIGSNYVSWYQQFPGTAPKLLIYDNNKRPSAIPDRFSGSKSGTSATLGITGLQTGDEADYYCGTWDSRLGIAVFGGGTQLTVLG ?
**A:** 0.817
